- assaySystem: Cytochrome P450 1A2 (Homo sapiens)
- runDescription: p450-cyp1a2 (AID 410)
- protocolConditions: recombinant CYP1A2, luciferin-ME demethylation, luminescence; series mostly up to 57 µM
Results filed as inconclusive are left out. The source made the active and inactive calls. The call rests on the fitted dose curve.
Your answer must be one of the following: active, inactive

Take a look at these entries with their results.
Query block: Can you look up the reported call for C[C@@H](C(=O)Nc1ccc2ccccc2c1)[C@H]1C[C@]1(C)[C@H](NC(=O)Oc1ccc(F)cc1)c1ccccc1 for me?
Result block: inactive

Query block: What would you report for CC(C)C[C@@H](CC(=O)N[C@H](CC(=O)N[C@@H]1CCNC[C@H]1C(=O)N[C@H](CC(=O)N[C@@H](CCC(=O)O)CC(=O)O)CC(C)C)C(C)C)NC(=O)[C@@H]1CNCC[C@H]1N ?
Result block: inactive

Continuing:
Query block: Can you look up the reported call for CC1=C(C(=O)OCc2ccccc2)C(c2ccc([N+](=O)[O-])cc2)NC(=O)N1CCCCCC(=O)O (stereo not drawn) for me?
Result block: active

###

- runDescription: Stat Signaling Pathway (AID 446);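 further: ME-180 cervical cancer cells given 40 pM IL-6 alongside compound; SIE-controlled beta-lactamase reporter measured as 460/530 nm FRET emission ratio; on the % scale 0 is the no-effect control and ±100 the full control effect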
- protocolConditions: ME-180 (cervical carcinoma) SIE beta-lactamase reporter, IL-6 stimulated, 5 h; at 17.2 µM (top of the series) unless noted
Inconclusive results are not listed. Active and inactive are the calls of the source. The call rests on the fitted dose curve; in most records, active means well fitted curve in either direction with a large enough effect (not every such curve was filed as active); inconclusive means small, poorly fitted or top-dose-only effect, or another doubt; inactive means flat fitted curve, though single readings scatter.
measurementType: activity, negative = inhibition

Check out these entries, answers already filled in.
Query block: Need activity, negative = inhibition of CCCc1nn(C)c2c1C(c1cccnc1)C(C#N)=C(N)O2 (configuration not stated) , thanks.
Result block: 4.95% (inactive)

Query block: What would you report for O=C(O)C(O)c1ccco1 (configuration not stated) ?
Result block: 1.78% (inactive)

Query block: What would you report for COC(=O)c1ccc(Cn2nnc3c(sc4nc(N5CCOCC5)c5c(c43)CCCC5)c2=O)o1 ?
Result block: -4.56% (inactive)

Continuing:
Query block: Need activity, negative = inhibition of CCc1nc2sc3c(c2c(=O)o1)CCCC3 , thanks.
Result block: 3.67% (inactive)

Query block: What would you report for Cc1cc(N2C(=O)C(=O)/C(=C(/O)c3ccc(F)cc3)C2c2ccc(F)cc2)no1 (configuration not stated) ?
Result block: -24.4% (inactive)

Query block: What would you report for CCOC(=O)C1=C(C)N=C2SC(C)C(=O)N2C1c1ccc(C(=O)OC)cc1 (configuration not stated) ?
Result block: -8.28% (inactive)

Query block: What would you report for N#CCCSCc1ccc(OCC(=O)O)cc1 ?
Result block: 0.185% (inactive)

Query block: What would you report for C=CCOC(=O)C1=C(C)NC(SCC(=O)Nc2ccc(C)c(Cl)c2)=C(C#N)C1c1ccco1 (configuration not stated) ?
Result block: 6.22% (inactive)

Query block: What would you report for c1cc(-c2nnc3sc(C4CCCCC4)nn23)ccn1 ?
Result block: -15.8% (inactive)

Query block: What would you report for CCCCn1c2nc3ccccc3nc2c2c(=O)n(CC(C)C)cnc21 ?
Result block: -6.11% (inactive)

###

- System: DFO2036
- runDescription: qHTS profiling for inhibitors of Plasmodium falciparum proliferation (AID 504749); further: nearly all actives have a fitted effect of over 60% in size; further: potency means the concentration at half of the fitted maximal effect
- protocolConditions: P. falciparum in erythrocytes, SYBR Green DNA, 72 h; series mostly up to 28.7 µM
Inconclusive results are not listed. Calls of active or inactive are those of the source. Calls follow the shape of the dose curve; as a rule, active = well fitted inhibition curve with a large enough effect; inconclusive = small, poorly fitted or top-dose-only effect; inactive = flat fitted curve, though single readings scatter.
measurementType: Potency

Check out these entries, answers already filled in.
Query block: Short answer please: Potency, DFO2036, entry CC[C@@H](C)C(N)C(=O)O (some centres not stated)
Result block: inactive

Query block: What would you report for CO[C@H]1C[C@@H]2CC[C@@H](C)[C@@](O)(O2)C(=O)C(=O)N2CCCC[C@H]2C(=O)O[C@H]([C@H](C)C[C@@H]2CC[C@@H](O)[C@H](OC)C2)CC(=O)[C@H](C)/C=C(\C)[C@@H](O)[C@@H](OC)C(=O)[C@H](C)C[C@H](C)/C=C/C=C/C=C/1C ?
Result block: 1780 nM (active)

Query block: What would you report for C[C@H](O)[C@@H]1C(=O)N2C(C(=O)O)=C(SCCN=CN)C[C@@H]12 ?
Result block: inactive

Query block: What would you report for CCCC(=O)Nc1c(I)cc(I)c(C[C@H](CC)C(=O)O)c1I ?
Result block: inactive

Query block: What would you report for C[C@]12CC[C@@H]3c4ccc(O)cc4C[C@@H](CCCCCCCCCS(=O)CCCC(F)(F)C(F)(F)F)C3[C@@H]1CC[C@@H]2O (some centres not stated) ?
Result block: 11200 nM (active)

Continuing:
Query block: Short answer please: Potency, DFO2036, entry NCCCCC(N)C(=O)O (configuration not stated)
Result block: inactive

Query block: What would you report for CC(C)C(=O)OCC(=O)[C@@]12OC(C3CCCCC3)O[C@@H]1CC1C3CCC4=CC(=O)C=C[C@]4(C)C3[C@@H](O)C[C@@]12C (some centres not stated) ?
Result block: 501 nM (active)
